Origin of measurements: ChEMBL document CHEMBL1126635

This section presents molecules with their documented Log SOSIP values.
- Tested on: Escherichia coli
- assay_text: Genotoxicity (SOSIP) on Escherichia coli PQ37 (SOS induction potential data, as a measure of genotoxicity)
- Assay type: functional
measured_parameter: Log SOSIP

>>> measurement("CC(=O)Oc1ccc2c(ccc3oc([N+](=O)[O-])cc32)c1")
3
>>> measurement("O=[N+]([O-])c1oc2ccc3ccccc3c2c1CCO")
3.78
>>> measurement("COc1ccc2ccc3oc([N+](=O)[O-])cc3c2c1Br")
4.46
>>> measurement("CCCCc1c([N+](=O)[O-])oc2ccc3ccccc3c12")
4.28
>>> measurement("CC(C)c1c([N+](=O)[O-])oc2ccc3ccccc3c12")
3.74
>>> measurement("Cc1c([N+](=O)[O-])oc2ccc3ccccc3c12")
4.91
>>> measurement("COc1cc2ccccc2c2cc([N+](=O)[O-])oc12")
4.04
>>> measurement("O=[N+]([O-])c1cc2c(ccc3ccccc32)o1")
3.96
>>> measurement("COc1cccc2cc3cc([N+](=O)[O-])oc3cc12")
2.96
>>> measurement("O=[N+]([O-])c1cc2c(cc3ccc4cccc5ccc2c3c45)o1")
5
>>> measurement("O=[N+]([O-])c1cc2ccccc2o1")
1.53
>>> measurement("O=[N+]([O-])c1cc2ccc3cc4ccccc4cc3c2o1")
4.08
